Reported EC50 by item:
Target: T1, human TNFR2 on the cell membrane (human, UniProt P20333 23-461)
T1 construct: whole, on cells; One molecule for all cell formats; also called TNFR2-CHO cells; CHO-TNFR2
T1 sequence (looked up): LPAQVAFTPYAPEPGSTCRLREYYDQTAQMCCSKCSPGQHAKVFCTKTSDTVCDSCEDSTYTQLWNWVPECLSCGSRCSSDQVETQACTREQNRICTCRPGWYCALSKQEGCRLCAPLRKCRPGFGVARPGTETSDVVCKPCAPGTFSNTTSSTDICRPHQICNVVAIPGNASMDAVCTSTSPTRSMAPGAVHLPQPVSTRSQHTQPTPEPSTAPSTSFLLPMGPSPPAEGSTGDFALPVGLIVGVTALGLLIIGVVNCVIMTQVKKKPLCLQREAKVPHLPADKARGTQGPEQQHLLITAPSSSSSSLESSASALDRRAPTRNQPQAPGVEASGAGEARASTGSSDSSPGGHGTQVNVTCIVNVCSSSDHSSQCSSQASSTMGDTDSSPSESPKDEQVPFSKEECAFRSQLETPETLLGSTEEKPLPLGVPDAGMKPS
Assay: flow cytometry on CHO-TNFR2 cells
Please reply with the bare figure in µg/mL and do not write the unit itself.

11G2huVH2 + huVL2(P07267) (antibody, V domains shown, Humanized 11G2) VH: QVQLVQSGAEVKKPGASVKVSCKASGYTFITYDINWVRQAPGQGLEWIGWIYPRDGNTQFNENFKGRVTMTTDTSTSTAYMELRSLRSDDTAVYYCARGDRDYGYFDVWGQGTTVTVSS VL: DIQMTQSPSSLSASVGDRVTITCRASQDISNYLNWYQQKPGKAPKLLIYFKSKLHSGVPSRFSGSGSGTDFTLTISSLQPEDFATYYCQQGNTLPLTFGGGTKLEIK ... 0.0214

For the next question, use this binder.
INPUT: Which EC50 is listed for 11G2huVH5 + huVL2(P07270) (antibody, V domains shown, Humanized 11G2) VH: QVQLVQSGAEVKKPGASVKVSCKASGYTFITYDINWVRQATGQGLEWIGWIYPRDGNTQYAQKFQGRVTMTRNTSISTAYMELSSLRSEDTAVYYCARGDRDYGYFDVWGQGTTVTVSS VL: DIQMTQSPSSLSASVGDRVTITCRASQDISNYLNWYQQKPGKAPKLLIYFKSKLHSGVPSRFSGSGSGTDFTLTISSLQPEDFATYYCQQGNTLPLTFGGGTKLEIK ?
OUTPUT: 0.0242
